Entries annotated with measured Percent Effect
- Tested on: Wolbachia pipientis
- method: Anti-Wolbachia Cell-Based Screen
- Type: functional
- Parameters: scale not given: in the data most compounds retested in dose-response had high values
- particulars: 5 µM
In all, about 48,000 compounds went through this assay and about 13,000 (27%) showed an effect of 50% or more. The list shows a part of the results.
Write the answer as a number in %, unit excluded.

* Cc1nc(C)c(CNC(=O)NC2CC(C)(C)OC2(C)C)s1 (stereo unspecified) | -7.711

Then there is this compound:
## Input For Cc1cccnc1C(=O)N1CCCCC1c1[nH]ncc1S(C)(=O)=O (stereo unspecified) , what is its reported Percent Effect?
## Output -7.963

The measured values listed here are drawn from ChEMBL document CHEMBL3988442.
